- system: T1, recombinant human PAD4 (human, UniProt Q9UM07 1-663)
- T1 construct: also called rhPAD4; hPAD4
- T1 sequence (Q9UM07 whole entry): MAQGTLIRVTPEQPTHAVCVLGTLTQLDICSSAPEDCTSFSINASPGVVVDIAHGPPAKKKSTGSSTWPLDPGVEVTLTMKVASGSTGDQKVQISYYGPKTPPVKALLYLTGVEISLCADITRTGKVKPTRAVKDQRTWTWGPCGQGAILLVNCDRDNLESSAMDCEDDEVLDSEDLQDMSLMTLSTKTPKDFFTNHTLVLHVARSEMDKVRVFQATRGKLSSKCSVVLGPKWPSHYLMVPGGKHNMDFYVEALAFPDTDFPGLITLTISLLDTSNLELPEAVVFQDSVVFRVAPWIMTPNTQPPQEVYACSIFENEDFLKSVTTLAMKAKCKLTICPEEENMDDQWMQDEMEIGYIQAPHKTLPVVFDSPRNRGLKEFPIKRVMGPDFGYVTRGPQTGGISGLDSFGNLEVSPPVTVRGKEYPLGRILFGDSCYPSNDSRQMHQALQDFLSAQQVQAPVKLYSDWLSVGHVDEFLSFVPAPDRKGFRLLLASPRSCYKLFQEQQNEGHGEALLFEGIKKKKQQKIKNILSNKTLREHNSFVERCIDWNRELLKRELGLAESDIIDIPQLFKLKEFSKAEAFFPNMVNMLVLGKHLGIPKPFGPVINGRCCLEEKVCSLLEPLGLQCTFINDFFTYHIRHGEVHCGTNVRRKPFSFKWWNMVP
- protocolDescription: SPR 37 C, captured antibody, PAD4 analyte, 1 mM CaCl2
Reported Kd values for the following binders.
Return type: number; implicit unit nM.

| binder | experimentalValue |
| --- | --- |
| hz20-13 (antibody, V domains shown, light constant region not tied to this antibody) VH: QVQLVQSGAEVKKPGASVKVSCKASGYTFTNYGISWVRQRPGQGLEWMGEIYPRSGNTYHNEKFKDRVTMTTDKSTSTAYMELRSLRSEDTAVYYCARSMITTRYWYFDVWGKGTTVTVSS VL: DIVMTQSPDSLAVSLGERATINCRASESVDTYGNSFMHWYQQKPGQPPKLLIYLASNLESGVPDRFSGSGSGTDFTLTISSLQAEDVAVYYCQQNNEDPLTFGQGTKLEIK | 0.5 |

With those in mind, consider the next binder.
[Q] Consider the binder hz20-7 (antibody, IgG1, V domains shown, also called clone 20-based hz20-7 antibody) VH: QVQLVQSGAEVKKPGASVKVSCKASGYTFTNYGISWVRQAPGQGLEWMGEIYPRSGNTYHNEKFKDRVTMTTDTSTSTAYMELRSLRSDDTAVYYCARSMITTRYWYFDVWGKGTTVTVSS VL: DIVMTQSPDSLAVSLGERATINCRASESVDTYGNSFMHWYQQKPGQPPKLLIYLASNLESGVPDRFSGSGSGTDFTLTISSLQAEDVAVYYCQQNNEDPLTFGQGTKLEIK and give its measured Kd.
[A] 0.8
